Tested on: S. aureus USA 300
Test: Minimal inhibitory concentration, microbroth dilution
Type: cell-based
Details: Staphylococcus aureus, USA300, read-out: Minimal Inhibitory Concentrations (μM) S. aureus USA 300, MIC
Numbered stars: 1 amine (or outer) side, 2 acyl side, 3 side chain; on linkers, the order of the positions; unused ones are H or OH. Bridge positions count the residues as written; N and C are the ends. Square brackets hold non-standard residues; d marks the D form. Peptide text beside a SMILES is read from it. * marks the point of attachment. Phe(3,5-Me2) = Cc1cc(C)cc(C[C@H](N)C(=O)O)c1; Morpholine(3S-CO) = O=C(O)[C@@H]1COCCN1; Phe(3-Me) = Cc1cccc(C[C@H](N)C(=O)O)c1; X4 = O=C1CN([*:1])[C@H](C(=O)[*:2])CN1; Pro(4R-Me) = C[C@H]1CN[C@H](C(=O)O)C1; Hyp = O=C(O)[C@@H]1C[C@@H](O)CN1; NH(3-Cl-phenyl) = Clc1cccc(N*)c1; NH(4-Cl-phenyl) = Clc1ccc(N*)cc1; NH(4-Me-phenyl) = Cc1ccc(N*)cc1; aThr = C[C@H](O)[C@H](N)C(=O)O; Pip = O=C(O)[C@@H]1CCCCN1; CO = O=C([*:1])[*:2]
Items are presented alongside their recorded MIC.
Respond with the figure and its unit, in that order.

compound: Cc1ccc(NC(=O)N[C@@H](Cc2cc(C)cc(C)c2)C(=O)N[C@@H]2C(=O)N3CCC[C@H]3C(=O)N3CCCC[C@H]3C(=O)N[C@@H](C)C(=O)N3C[C@H](C)C[C@H]3C(=O)O[C@H]2C)cc1 [Compound 2] ({NH(4-Me-phenyl)-CO}-[Phe(3,5-Me2)][aThr]P[Pip]A[Pro(4R-Me)]; ester 2-C)
obs_value: 0.781 µM
//
compound: Cc1cccc(C[C@H](NC(=O)Nc2ccc(Cl)cc2)C(=O)N[C@@H]2C(=O)N3C[C@H](O)C[C@H]3C(=O)N3CCOC[C@H]3C(=O)N[C@@H](C)C(=O)N3C[C@H](C)C[C@H]3C(=O)O[C@H]2C)c1 [Compound 73] ({NH(4-Cl-phenyl)-CO}-[Phe(3-Me)][aThr][Hyp][Morpholine(3S-CO)]A[Pro(4R-Me)]; ester 2-C)
obs_value: 0.625 µM
//
compound: Cc1cccc(C[C@H](NC(=O)Nc2cccc(Cl)c2)C(=O)N[C@@H]2C(=O)N3C[C@H](O)C[C@H]3C(=O)N3CCCC[C@H]3C(=O)N[C@@H](C)C(=O)N3CCC[C@H]3C(=O)O[C@H]2C)c1 [Compound 60] ({NH(3-Cl-phenyl)-CO}-[Phe(3-Me)][aThr][Hyp][Pip]AP; ester 2-C)
obs_value: 10 µM
//
compound: Cc1cccc(C[C@H](NC(=O)Nc2ccc(Cl)cc2)C(=O)N[C@H]2COC(=O)[C@@H]3C[C@@H](C)CN3C(=O)[C@H](C)NC(=O)[C@@H]3CCCCN3C(=O)[C@@H]3CCCN3C2=O)c1 [Compound 71]
obs_value: 0.625 µM
//
compound: Cc1ccc(NC(=O)N[C@@H](Cc2cccc(C)c2)C(=O)N[C@H]2COC(=O)[C@@H]3C[C@H](C)CN3C(=O)[C@H](C)NC(=O)[C@@H]3CCCCN3C(=O)[C@@H]3CCCN3C2=O)cc1 (stereo in doubt) [Compound 43]
obs_value: 2.5 µM
//
compound: Cc1cccc(C[C@H](NC(=O)Nc2ccc(Cl)cc2)C(=O)N[C@@H]2C(=O)N3CCC[C@H]3C(=O)N3CC(=O)NC[C@H]3C(=O)N[C@@H](C)C(=O)N3C[C@H](C)C[C@H]3C(=O)O[C@H]2C)c1 [Compound 75] ({NH(4-Cl-phenyl)-CO}-[Phe(3-Me)][aThr]P[X4]A[Pro(4R-Me)]; ester 2-C)
obs_value: 10 µM

Here is the next item to consider.
[in] What value of measured MIC is listed for Cc1cccc(C[C@H](NC(=O)Nc2ccc(Cl)cc2)C(=O)N[C@@H]2C(=O)N3C[C@H](O)C[C@H]3C(=O)N3CCCC[C@H]3C(=O)N[C@@H](C)C(=O)N3CCC[C@H]3C(=O)O[C@H]2C)c1 [Compound 59] ({NH(4-Cl-phenyl)-CO}-[Phe(3-Me)][aThr][Hyp][Pip]AP; ester 2-C) ?
[out] 1.25 µM
